molecular target: Alpha-bungarotoxin (Bungarus multicinctus) (UniProt P60615); assay: alpha-bungarotoxin binders on microarray, profiling panel, artefact control for SMM control protein annotation, biochemical, small-molecule microarray, Alexa647 label, 635/667 nm fluorescence (AID 1117); conditions: alpha-BTX-A647 binding fluorescence, higher = more signal
Sequence (P60615 whole entry, looked up): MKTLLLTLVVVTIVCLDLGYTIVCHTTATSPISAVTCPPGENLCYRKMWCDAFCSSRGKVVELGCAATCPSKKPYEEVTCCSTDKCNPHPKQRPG
experimental-endpoint: composite z-score
Note: the reply should be a number with no unit written.

Look over these answered cases.
compound	composite z-score
O=C1OCC=C[C@H]2OC34C=CCN(Cc5ccccc5)C(=O)[C@H]3N(CCO)C(=O)[C@@H]4[C@@H]12 (some centres not stated)	-0.38
COC(=O)[C@@]1(Cc2ccccc2)[C@H]2c3cc(C(=O)N4CCCC4)n(CCN4CNCC4=O)c3C[C@H]2CN1C(=O)c1ccccc1	0.98
CCCN1C(=O)[C@@]2(CCS(=O)(=O)c3ccccc3)N=C(c3ccc(OCCCO)cc3)O[C@H]2c2ccccc21	1.01
CC(=O)NCCCC[C@@H]1NC(=O)[C@H]2C[C@@H](C(=O)NCCCCCCN(C)C)[C@@H](c3ccc(O)cc3)N2C1=O	2.01
O=C(NCc1ccccc1)c1ccc(Br)cc1[N+](=O)[O-]	1.29
COc1ccc([Si](C)(C)[C@H]2[C@H](CC(=O)N(CCO)Cc3ccccc3)O[C@@]3(C(=O)N(C)c4ccccc43)[C@@H]2C)cc1	0.238
[N-]=[N+]=NCc1ccccc1C[C@]1(C(=O)N2CCCCC2)N=C(c2ccc(OCCCO)cc2)O[C@H]1c1ccccc1CN=[N+]=[N-]	1.11
C=C(COC)C(=O)CC[C@H](OC(=O)c1ccccc1-c1ccccc1C(=O)O)c1cccc(OCCO)c1	-0.151

Provide one value: measured composite z-score of O=C1C2C=CC(C(O)c3ccccc3)N(n3cnnc3)C2C(=O)N1Cc1ccccc1 (configuration not stated) 0.449

Provide one value: measured composite z-score of CO[C@H]1COC(=O)CC=C[C@H](C)[C@@H](OC)COC(=O)CC=C[C@@H]1C -0.86

Provide one value: measured composite z-score of N#Cc1ccc(NN2C(C(O)c3ccc(I)cc3)C=CC3C(=O)N(c4ccccc4)C(=O)C32)cc1 (configuration not stated) 1.32

Provide one value: measured composite z-score of Cc1ccccc1C(O)C1C=CC2C(=O)N(c3ccccc3)C(=O)C2N1Nc1ccc(C#N)cc1 (configuration not stated) 1.94

Provide one value: measured composite z-score of O=[N+]([O-])c1ccc(C[n+]2ccc3ccc(O)cc3c2)o1 2.53

Provide one value: measured composite z-score of C=CCC(OC(C)=O)[C@@H]1[C@@H](N(Cc2cc3ccccc3o2)C(=O)c2ccc(C)cc2)c2cc(OCCCO)ccc2N1C(=O)c1ccc2ccccc2n1 (some centres not stated) 0.432

Provide one value: measured composite z-score of CN1C(=O)C2C=CC(C(O)C3CC=CCC3)N(Nc3ccccc3)C2C1=O (configuration not stated) 1.58

Provide one value: measured composite z-score of CC(C)CNC(=O)[C@@]1(C)c2ccccc2C(=O)N(Cc2ccc(OC(F)(F)F)cc2)[C@H]1c1ccc(CO)cc1 -0.36

Provide one value: measured composite z-score of CC1=C([C@H](O)CCc2ccccc2)[C@H](CO)[C@@H]2C(=O)N(Cc3ccccc3)C(=O)[C@@H]2C1 1.71
